pKi: −log10 of the molar value.
Here we gather pKi data for D(3) dopamine receptor (Rattus norvegicus, UniProt P19020) reported by several publications.
Parameter threshold = 7. Response is True when pKi meets or exceeds it, else False.

>  <compound>
CCCN(CC[C@H]1CC[C@H](NC(=O)c2ccc(-n3ccnc3)cc2)CC1)[C@H]1CCc2nc(N)sc2C1

>  <assigned-label>
True

$$$$
>  <compound>
CCCN(CCCCCCCCCCCCN(CCC)[C@H]1CCc2c(O)cccc2C1)[C@H]1CCc2c(O)cccc2C1

>  <assigned-label>
True

$$$$
>  <compound>
COc1cc(N)c(Cl)cc1C(=O)N[C@H]1CCN(Cc2ccccc2)C1

>  <assigned-label>
True

$$$$
>  <compound>
O=C(CCCN1CCN2c3ccccc3CCC2C1)c1ccc(F)cc1 (centres undefined)

>  <assigned-label>
False

$$$$
>  <compound>
COc1cc(NC(=O)C2CC2)c(Cl)cc1C(=O)N[C@H]1CCN(C2CCCCCC2)C1

>  <assigned-label>
True

$$$$
>  <compound>
COc1c(C(=O)NC[C@@H]2CCCN2C2CCCCCC2)cc(Br)c2ccccc12

>  <assigned-label>
True

$$$$
